- Tested on: MDR1
- Experimental Details: MDCK-MDR1 permeability assay
- Assay type: in vitro ADME
- Assay Conditions: dog, MDCK-MDR1, MDCK-MDR1 cells; Papp B→A divided by Papp A→B; 3 μM; 2 hours; read-out: Efflux ratio (ER)
- Method: The bidirectional permeability (Apical to Basal and Basal to Apical directions) of test compounds in MDCK-MIDR1 cells were evaluated using MDCK-MIDR1 cells seeded in Solvo PreadyPort™ MDCK 96-well plate. Once the plate was received from ReadyCell (Barcelona, Spain), it was treated as per PreadyPort™ user's manual. […] The efflux ratio (ER) was measured by dividing the Papp (basolateral to apical direction) by Papp (apical to basolateral direction). […]
Measured Attribute: efflux ratio at 2 h, 3 μM
Reply briefly: the number, and no unit.

| Compound | efflux ratio at 2 h, 3 μM |
| --- | --- |
| O=C1COc2ccccc2[C@H]2CC[C@H](CC2)OCC2[C@@H](NS(=O)(=O)C3CCC3)CCCN12 (stereo in doubt) [Compound 42] | 7.4 |
| O=S(=O)(N[C@H]1CCCN2CCOc3ccccc3[C@H]3CC[C@H](CC3)OCC12)C1CCC1 (stereo in doubt) [Compound 57] | 6 |

Then there is this compound:
Which measured efflux ratio at 2 h, 3 μM value corresponds to O=C1COc2ccccc2[C@H]2CC[C@H](CC2)OCC2[C@@H](NS(=O)(=O)C3COC3)CCCN12 (stereo in doubt) [Compound 80] ?
51

###

- Test system: human hepatocytes
- Experimental Details: Hepatocytes stability assay (human hepatocytes)
- Type: in vitro ADME
- Assay Conditions: human hepatocytes; scaled hepatic clearance divided by liver blood flow (well-stirred model, fu assumed unity)
Measured Attribute: Extraction Ratio (ER)

| Compound | Extraction Ratio (ER) |
| --- | --- |
| Cc1ccc2c(c1C)[C@H]1CC[C@H](CC1)OCC1[C@@H](NS(=O)(=O)C3CC3)CCCN1C(=O)CO2 (stereo in doubt) | 0.63 |
| O=S(=O)(CC1CCC1)N[C@H]1CCCN2CCOc3ccccc3[C@H]3CC[C@H](CC3)OCC12 (stereo in doubt) | 0.91 |
| Cc1c(Cl)ccc2c1[C@H]1CC[C@H](CC1)OCC1[C@@H](NS(C)(=O)=O)CCCN1C(=O)CO2 (stereo in doubt) | 0.37 |

Then there is this compound:
Which measured Extraction Ratio (ER) value corresponds to Cc1ccnc2c1[C@H]1CC[C@H](CC1)OCC1[C@@H](NS(=O)(=O)C3COC3)CCCN1C(=O)CO2 (stereo in doubt) ?
0.50

###

Below, each entry is listed with its recorded efflux ratio at 2 h, 3 μM.
- System: MDR1
- Experimental Details: MDCK-MDR1 permeability assay
- Format: in vitro ADME
- Assay Conditions: dog, MDCK-MDR1, MDCK-MDR1 cells; Papp B→A divided by Papp A→B; 3 μM; 2 hours; read-out: Efflux ratio (ER)

The examples below pair each entry with its known result.
| Compound | Assay System | Experimental Result |
| --- | --- | --- |
| Cc1ccnc2c1[C@H]1CC[C@H](CC1)OCC1[C@@H](NS(=O)(=O)C3CC3)CCCN1C(=O)CO2 (stereo in doubt) | MDR1 | > 100 |
| CC(C)S(=O)(=O)N[C@H]1CCCN2C(=O)COc3ccc(Cl)cc3[C@H]3CC[C@H](CC3)OCC12 (stereo in doubt) | MDR1 | > 100 |
| Cc1ncnc2c1[C@H]1CC[C@H](CC1)OCC1[C@@H](NS(C)(=O)=O)CCCN1C(=O)CO2 (stereo in doubt) | MDR1 | 48 |

Then there is this compound:
Which measured efflux ratio at 2 h, 3 μM value corresponds to CC[C@@H](C)S(=O)(=O)N[C@H]1CCCN2C(=O)COc3ccccc3C3CCC(CC3)OC[C@@H]12 (stereo in doubt) ?
27

###

- Assay System: human orexin-2 receptor (OX2R) (Homo sapiens, UniProt O43614)
- Construct: expressed in transfected cells
- Experimental Details: Human OX2R IP1 assay
- Format: cell-based
- Assay Conditions: T-Rex CHO cells stably overexpressing human OX2R; IP1 accumulation; 1 hr at 37 degrees C; mean EC50
Below, each entry is listed with its recorded EC50.

The examples below pair each entry with its known result.
| Molecule | Assay System | Experimental Result |
| --- | --- | --- |
| Cc1ncnc2c1[C@H]1CC[C@H](CC1)OC[C@H]1[C@@H](NS(=O)(=O)C3CC3)CCCN1C(=O)CO2 (stereo in doubt) [Compound 68] | human orexin-2 receptor (OX2R) (Homo sapiens, UniProt O43614) | < 10 nM |
| Cc1c(Cl)ccc2c1[C@H]1CC[C@H](CC1)OC[C@H]1[C@@H](NS(C)(=O)=O)CCCN1C(=O)CO2 (stereo in doubt) [Compound 31] | human orexin-2 receptor (OX2R) (Homo sapiens, UniProt O43614) | < 10 nM |
| CC1(S(=O)(=O)N[C@H]2CCCN3C(=O)COc4ccccc4[C@H]4CC[C@H](CC4)OC[C@@H]23)CC1 (stereo in doubt) [Compound 8] | human orexin-2 receptor (OX2R) (Homo sapiens, UniProt O43614) | < 10 nM |
| O=S(=O)(N[C@H]1CCCN2CCOc3ccccc3[C@H]3CC[C@H](CC3)OC[C@@H]12)C1CCC1 (stereo in doubt) [Compound 57] | human orexin-2 receptor (OX2R) (Homo sapiens, UniProt O43614) | 10 to 1000 nM |
| O=C1COc2ccccc2[C@H]2CC[C@H](CC2)OCC2[C@@H](NS(=O)(=O)C3CCOC3)CCCN12 (stereo in doubt) [Compound 73] | human orexin-2 receptor (OX2R) (Homo sapiens, UniProt O43614) | < 10 nM |

Provide value of EC50 for this record tested with human orexin-2 receptor (OX2R) (Homo sapiens, UniProt O43614): CS(=O)(=O)N[C@H]1CCCN2C(=O)[C@@H](CO)Oc3ccccc3[C@H]3CC[C@H](CC3)OCC12 (stereo in doubt) [Compound 60]
< 10 nM

###

- System: MDR1
- Experimental Details: MDCK-MDR1 permeability assay
- Format: in vitro ADME
- Assay Conditions: dog, MDCK-MDR1, MDCK-MDR1 cells; test compound 3 μM; 2 hours at 37 degrees C; apical to basolateral
Measured Attribute: Papp A→B at 2 h, 3 μM

| Compound | Papp A→B at 2 h, 3 μM |
| --- | --- |
| CC[C@@H]1Oc2ccccc2[C@H]2CC[C@H](CC2)OCC2[C@@H](NS(C)(=O)=O)CCCN2C1=O (stereo in doubt) [Compound 84] | 0.43 ×10⁻⁶ cm/s |

Which measured Papp A→B at 2 h, 3 μM value corresponds to O=C1COc2ncccc2C2CCC(CC2)OC[C@H]2[C@@H](NS(=O)(=O)C3CC3)CCCN12 (stereo in doubt) [Compound 14] ?
0.3 ×10⁻⁶ cm/s

Entry Cc1cccc2c1C1CCC(CC1)OC[C@H]1[C@@H](NS(=O)(=O)C(C)C)CCCN1C(=O)CO2 (stereo in doubt) [Compound 9] please
0.87 ×10⁻⁶ cm/s

Entry CC(C)S(=O)(=O)N[C@H]1CCCN2CCOc3ccccc3[C@H]3CC[C@H](CC3)OCC12 (stereo in doubt) [Compound 52] please
3.9 ×10⁻⁶ cm/s

Entry CS(=O)(=O)N[C@H]1CCCN2C(=O)[C@@H](CO)Oc3ccccc3[C@H]3CC[C@H](CC3)OCC12 (stereo in doubt) [Compound 60] please
0.041 ×10⁻⁶ cm/s

###

- Assay System: UniProtKB O43614
- Sequence (O43614 1-444): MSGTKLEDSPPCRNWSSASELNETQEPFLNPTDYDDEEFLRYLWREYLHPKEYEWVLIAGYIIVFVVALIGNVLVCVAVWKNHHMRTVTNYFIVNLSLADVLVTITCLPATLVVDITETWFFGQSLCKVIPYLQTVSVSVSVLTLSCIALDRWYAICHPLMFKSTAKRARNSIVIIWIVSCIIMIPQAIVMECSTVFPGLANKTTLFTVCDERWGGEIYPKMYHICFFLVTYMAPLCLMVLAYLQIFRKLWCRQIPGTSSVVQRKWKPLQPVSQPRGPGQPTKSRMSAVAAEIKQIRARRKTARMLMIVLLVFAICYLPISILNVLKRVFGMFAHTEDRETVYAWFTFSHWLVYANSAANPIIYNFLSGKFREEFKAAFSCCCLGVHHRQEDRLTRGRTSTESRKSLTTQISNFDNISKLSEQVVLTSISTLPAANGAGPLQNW
- Experimental Details: Human OX2R IP1 assay
- Assay Conditions: T-Rex CHO cells stably overexpressing human OX2R; IP1 accumulation; 1 hr at 37 degrees C; mean EC50
Below, each entry is listed with its recorded EC50.

The examples below pair each entry with its known result.
| Compound | Experimental Result |
| --- | --- |
| CN(C)CCS(=O)(=O)N[C@H]1CCCN2C(=O)COc3ccccc3[C@H]3CC[C@H](CC3)OC[C@@H]12 (stereo in doubt) | < 10 nM |
| Cc1ncnc2c1[C@H]1CC[C@H](CC1)OCC1[C@@H](NS(=O)(=O)C(F)(F)F)CCCN1C(=O)CO2 (stereo in doubt) | < 10 nM |

Then there is this compound:
Which measured EC50 value corresponds to C=CS(=O)(=O)N[C@H]1CCCN2C(=O)COc3ccccc3[C@H]3CC[C@H](CC3)OC[C@@H]12 (stereo in doubt) ?
< 10 nM
